We begin with a simple list: items and their reported inhibition.
target: Dual specificity protein phosphatase 3 (Homo sapiens) (UniProt P51452); assay: VHR1 phosphatase inhibitors, biochemical (AID 1878); settings: recombinant VHR phosphatase, fluorogenic substrate; at 13.3 µM; active compounds read high
Sequence (P51452 whole entry, looked up): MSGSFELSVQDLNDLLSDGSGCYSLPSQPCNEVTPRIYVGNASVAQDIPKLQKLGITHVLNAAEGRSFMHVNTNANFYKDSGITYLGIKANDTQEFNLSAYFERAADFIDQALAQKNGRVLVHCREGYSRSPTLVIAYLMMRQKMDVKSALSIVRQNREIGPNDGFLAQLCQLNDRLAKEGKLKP
About 200 (20%) of roughly 1,000 compounds were called active. These entries were drawn from the full list. Potency and affinity values are given separately.

compound	inhibition
Cc1ccccc1NC(=O)CN1C(=O)S/C(=C\c2ccc(-c3cc(C(=O)O)ccc3C)o2)C1=O	67.4% (active)
COc1cc(/C=C2\SC(=O)N(Cc3ccc(F)cc3)C2=O)cc([N+](=O)[O-])c1O	53% (active)
O=C(CN1C(=O)S/C(=C\c2ccc(-c3cc(C(=O)O)ccc3Cl)o2)C1=O)Nc1ccc2c(c1)OCO2	91.9% (active)

I looked up Cc1nn(CC(=O)NCCCN2CCCCC2C)c(=O)c2cccn12 (configuration not stated) and its inhibition for Dual specificity protein phosphatase 3 (Homo sapiens) (UniProt P51452) was -5.4% (inactive)

Record CCC(=O)N1CCN=C1SCc1cccc(F)c1 / Dual specificity protein phosphatase 3 (Homo sapiens) (UniProt P51452), inhibition recorded as 0.5% (inactive)

Entry Cc1ccc(Cn2c(N3CCNCC3)nc3c2c(=O)[nH]c(=O)n3C)cc1 under Dual specificity protein phosphatase 3 (Homo sapiens) (UniProt P51452) had inhibition of 3.7% (inactive)

Cc1c(NC(=O)c2ccc(Cl)c(S(=O)(=O)N3CCCCC3)c2)c(=O)n(-c2ccccc2)n1C tested on Dual specificity protein phosphatase 3 (Homo sapiens) (UniProt P51452) gave inhibition: -10.6% (inactive)

Reported Dual specificity protein phosphatase 3 (Homo sapiens) (UniProt P51452) inhibition for item Cc1ccc(C(=O)O)cc1-c1ccc(/C=C2\SC(=O)N(CC(=O)Nc3ccccc3)C2=O)o1 was 45.6% (inactive)

Reported inhibition (Dual specificity protein phosphatase 3 (Homo sapiens) (UniProt P51452)) for entry Cc1ccc(F)c(CNC(=O)C2CCC(=O)N(Cc3ccccn3)C2)c1F (configuration not stated) is 1.1% (inactive)

Value (inhibition, Dual specificity protein phosphatase 3 (Homo sapiens) (UniProt P51452)) for record CCCCCCC(=O)Nc1nc(C)c(-c2csc(Nc3cc(OC)ccc3OC)n2)s1 = 11.7% (inactive)

Here COC(=O)c1ccc(COc2ccc(F)cc2)o1 was tested on Dual specificity protein phosphatase 3 (Homo sapiens) (UniProt P51452), and its inhibition came to 27.9% (inactive)

Result for CC1CCC(NCCNC(=O)c2ccco2)CC1 (configuration not stated) , tested on Dual specificity protein phosphatase 3 (Homo sapiens) (UniProt P51452), inhibition: -9.5% (inactive)

Given the compound CCN1CCN(CC(=O)Nc2nc3ccc(C)cc3s2)CC1 and test system Dual specificity protein phosphatase 3 (Homo sapiens) (UniProt P51452), the measured inhibition is -5.5% (inactive)

Item: COC(=O)c1ccnc(/C=N/O)c1 | System: Dual specificity protein phosphatase 3 (Homo sapiens) (UniProt P51452) | inhibition: 9.3% (inactive)

----------
biological target: Dual specificity protein phosphatase 3 (Homo sapiens); experiment: VHR1 phosphatase inhibitors, biochemical (AID 1878); settings: recombinant VHR phosphatase, fluorogenic substrate; at 13.3 µM
Hit rate of the full screen: of about 1,000 compounds, about 200 (20%) were called active. Rule as the data show it: active = inhibition above about 55%; inactive = the rest. Not all results are given here. Potency and affinity values are given separately.
Respond with a class label; see t for active, f for inactive

compound	assigned.category
O=C(O)c1ccc(N2C(=O)/C(=C/c3ccc(-c4ccc([N+](=O)[O-])cc4)o3)C=C2c2ccccc2)cc1	t
O=C(NN1C(=O)C2C(C1=O)C1C=CC2C12CC2)c1ccccc1 (stereo unspecified)	f
Cc1cc(Br)c(S(=O)(=O)NCc2cccnc2)cc1C	f
COc1ccc(Cc2nnc(NC(=O)c3ccco3)s2)cc1	f
CCOCCCNC(=O)c1cn(C)c2ccc(S(=O)(=O)N3CCCCC3)cc2c1=O	f

Field: next compound
Q: How was CN(C)c1ccc(NC(=O)CSc2nnc(C3CCCCC3)n2N)cc1 classified in this test?
Result: f

----------
molecular target: Dual specificity protein phosphatase 3 (Homo sapiens); experiment: VHR1 phosphatase inhibitors, biochemical (AID 1878); conditions: recombinant VHR phosphatase, fluorogenic substrate; at 13.3 µM
Hit rate of the full screen: of about 1,000 compounds, about 200 (20%) were called active. Rule as the data show it: active = inhibition above about 55%; inactive = the rest. Only a sample is shown. Entries with a potency or affinity are not part of this list.
Mark one answer only. Choices: active, inactive

compound	assay.system	assigned.category
O=C(CSc1nc2ccccc2n1CCc1ccccc1)c1ccc(O)c(O)c1	Dual specificity protein phosphatase 3 (Homo sapiens)	active
Cc1cc(C)cc(NS(=O)(=O)c2ccc(-c3cnc(C4CC4)o3)cc2)c1	Dual specificity protein phosphatase 3 (Homo sapiens)	inactive

Q: State the result this test recorded for O=C(Nc1ccccc1C(=O)O)c1ccc2c(c1)C(=O)N(c1cccc([N+](=O)[O-])c1)C2=O .
Result: inactive

Q: What was the test verdict on Cc1cc2c(cc3c(=O)n(CC(=O)NCCCN4CC(C)CC(C)C4)ncn32)s1 (configuration not stated) ?
Result: inactive

Q: Short answer needed: outcome of this test for Cc1ccc(C)c(NC(=O)C(c2ccccc2)N2CCOCC2)c1 (configuration not stated) ?
Result: inactive

Q: // param item: CCn1cc(CCC(=O)NCCN2CCOCC2)c2ccccc21 ; yields the recorded call
Result: inactive

Q: Answer briefly: the call reported for CCOc1ccc(C(=S)N2CCCC2)c(OCC)c1 in this assay.
Result: inactive

Q: Give the logged outcome of this assay for the following compound: O=c1oc(-c2ccccc2Cl)nc2ccsc12
Result: inactive

----------
biological target: Dual specificity protein phosphatase 3 (Homo sapiens) (UniProt P51452); assay: VHR1 phosphatase inhibitors, biochemical (AID 1878); conditions: recombinant VHR phosphatase, fluorogenic substrate; at 13.3 µM
Out of some 1,000 compounds screened, about 200 (20%) were called active. No stated cut-off is given here; in the data, active means inhibition above about 55%; inactive means the rest. A selection follows. Entries with a potency or affinity are not part of this list.
Mark one answer only. Choices: 1 (yes) for active, 0 (no) for inactive

# count of solved cases: 4
compound	assigned.category
Cn1c(=O)c2[nH]c(N3CCCCC3)nc2n(C)c1=O	0 (no)
COc1cc(NC(=O)c2cnc(NCc3ccccc3)nc2C)cc(OC)c1OC	0 (no)
CCOc1ccc(C(=O)N2CCC3(CC2)NCCc2[nH]cnc23)cc1OCC	0 (no)
CC1Sc2ccc(S(=O)(=O)CCC(=O)N(C)Cc3ccco3)cc2NC1=O (configuration not stated)	0 (no)

Q: Fill in: this test's call for O=C(CN1CCN(c2ccc(O)cc2)CC1)N1CCc2ccccc21 is ___
Result: 0 (no)

Q: Status in this test for Cc1ccc(NC(=O)COC(=O)c2nn(C)cc2Cl)cc1 ?
Result: 0 (no)

Q: Give the logged outcome of this assay for the following compound: CCOc1ccc(-n2c(SCC(=O)N3CCc4ccccc43)nnc2-c2c[nH]c3ccccc23)cc1
Result: 1 (yes)

----------
target: Dual specificity protein phosphatase 3 (Homo sapiens) (UniProt P51452); assay: VHR1 phosphatase inhibitors, biochemical (AID 1878); conditions: recombinant VHR phosphatase, fluorogenic substrate; at 13.3 µM; active compounds read high
Screen size: about 1,000 compounds; about 200 (20%) were called active. Only a sample is shown. Results with a measured potency or affinity are listed apart.
Examples of molecules with documented inhibition follow.
The reply should be a number in %, with the unit left off.

molecule	assay.system	inhibition (%)
CN(C)CCN(CC1CCCN(Cc2ccccc2F)C1)C(=O)Cc1ccccc1F (centres undefined)	Dual specificity protein phosphatase 3 (Homo sapiens) (UniProt P51452)	-15.2
CC1=C(C(=O)OC(C)C)C(c2ccccc2)NC(=O)N1C (centres undefined)	Dual specificity protein phosphatase 3 (Homo sapiens) (UniProt P51452)	6.5
Cc1ccc(CNS(=O)(=O)c2c(C)[nH]c(=O)[nH]c2=O)cc1	Dual specificity protein phosphatase 3 (Homo sapiens) (UniProt P51452)	-4.8
COc1cccc(CNC(=O)C2CCN(c3nn4c(=O)cc(C)nc4s3)CC2)c1	Dual specificity protein phosphatase 3 (Homo sapiens) (UniProt P51452)	-8.6
Cc1cc(=O)oc2c3c(cc(OCC(=O)NCC(=O)N[C@H](C(=O)O)C(C)C)c12)OC(C)(C)CC3	Dual specificity protein phosphatase 3 (Homo sapiens) (UniProt P51452)	9.6
CC(C)[C@H](NC(=O)C1CCN(S(=O)(=O)c2ccccc2)CC1)C(=O)NCc1ccccc1	Dual specificity protein phosphatase 3 (Homo sapiens) (UniProt P51452)	12.2
Oc1ccc(N2CCN(Cc3nc4ccccc4[nH]3)CC2)cc1	Dual specificity protein phosphatase 3 (Homo sapiens) (UniProt P51452)	-15.2
O=C(Cn1ncc2c([nH]c3ccccc32)c1=O)N1CCOCC1	Dual specificity protein phosphatase 3 (Homo sapiens) (UniProt P51452)	16.5
CC(c1ccccc1)N1CCn2c(nc3cc(NC(=O)NC4CCCCC4)ccc32)C1 (centres undefined)	Dual specificity protein phosphatase 3 (Homo sapiens) (UniProt P51452)	-21.4
CN(c1ccccc1)S(=O)(=O)c1nnc(NC(=O)C2CCCCC2)s1	Dual specificity protein phosphatase 3 (Homo sapiens) (UniProt P51452)	-1.3

The recorded inhibition for entry COc1ccc(Nc2nccc(-c3ccc(C#N)cc3)n2)cc1 equals -0.6

inhibition measured on CN1C(=O)CN=C(c2ccc(Cl)cc2)c2cc(Cl)ccc21 = 16

Briefly, inhibition measured for CCN(CC)C(=O)Cn1cc(C(=O)C(=O)NCCCN2CCCCC2)c2ccccc21 : 1.8

The value of inhibition measured for the molecule O=C(O)CCCCC1CCSS1 (centres undefined) turned out to be 97.7

get_value(item= COc1nc(C)cc(C)c1S(=O)(=O)c1ccccc1 , readout=inhibition) returns 6.1
